This section presents binders with their documented interaction score values.
assayed target: T1, 4H491-bN
T1 chain: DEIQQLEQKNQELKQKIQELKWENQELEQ
test name: two-hybrid library CCNG1;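 further: natural log of median RNA to DNA barcode read ratio; higher means stronger binding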
quantity: interaction score

> print(dat)
                                     binder   value
1  DEIQQLEQKIQELKQENQELEWKIQELKQ [4H342-bN]    1.47
2  DKIQQLKQKIQELKQEIQELEWENQELEQ [4H2883-bN]  -0.669
3   DEIQQLEQEIQELEQKIQELKWKNQELKQ [4H48-bN]  -0.799
4  DKIQQLKQKIQELKQKNQELKWEIQELEQ [4H2937-bN]   -1.11
